Target: plasma purified human complement protein C3 (human) (UniProt P01024)
Sequence (P01024 23-667, chain 1 of 2): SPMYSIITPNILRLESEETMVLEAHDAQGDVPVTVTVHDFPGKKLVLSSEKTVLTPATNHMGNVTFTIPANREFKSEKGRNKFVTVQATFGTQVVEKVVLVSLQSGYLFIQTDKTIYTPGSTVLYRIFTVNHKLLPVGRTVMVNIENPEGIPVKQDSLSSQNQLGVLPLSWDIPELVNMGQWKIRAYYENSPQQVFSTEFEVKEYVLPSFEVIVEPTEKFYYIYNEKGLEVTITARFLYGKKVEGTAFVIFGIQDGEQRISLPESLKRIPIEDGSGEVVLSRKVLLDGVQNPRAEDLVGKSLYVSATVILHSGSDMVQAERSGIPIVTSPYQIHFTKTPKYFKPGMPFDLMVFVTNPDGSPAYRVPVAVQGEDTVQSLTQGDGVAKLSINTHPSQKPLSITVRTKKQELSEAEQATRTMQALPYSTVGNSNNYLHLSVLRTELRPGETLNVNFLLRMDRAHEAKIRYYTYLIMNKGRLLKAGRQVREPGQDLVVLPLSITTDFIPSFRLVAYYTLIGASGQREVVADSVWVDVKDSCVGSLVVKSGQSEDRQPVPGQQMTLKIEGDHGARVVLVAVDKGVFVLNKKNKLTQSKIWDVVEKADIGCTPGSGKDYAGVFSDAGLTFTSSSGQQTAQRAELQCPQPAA
Sequence (P01024 672-1663, chain 2 of 2): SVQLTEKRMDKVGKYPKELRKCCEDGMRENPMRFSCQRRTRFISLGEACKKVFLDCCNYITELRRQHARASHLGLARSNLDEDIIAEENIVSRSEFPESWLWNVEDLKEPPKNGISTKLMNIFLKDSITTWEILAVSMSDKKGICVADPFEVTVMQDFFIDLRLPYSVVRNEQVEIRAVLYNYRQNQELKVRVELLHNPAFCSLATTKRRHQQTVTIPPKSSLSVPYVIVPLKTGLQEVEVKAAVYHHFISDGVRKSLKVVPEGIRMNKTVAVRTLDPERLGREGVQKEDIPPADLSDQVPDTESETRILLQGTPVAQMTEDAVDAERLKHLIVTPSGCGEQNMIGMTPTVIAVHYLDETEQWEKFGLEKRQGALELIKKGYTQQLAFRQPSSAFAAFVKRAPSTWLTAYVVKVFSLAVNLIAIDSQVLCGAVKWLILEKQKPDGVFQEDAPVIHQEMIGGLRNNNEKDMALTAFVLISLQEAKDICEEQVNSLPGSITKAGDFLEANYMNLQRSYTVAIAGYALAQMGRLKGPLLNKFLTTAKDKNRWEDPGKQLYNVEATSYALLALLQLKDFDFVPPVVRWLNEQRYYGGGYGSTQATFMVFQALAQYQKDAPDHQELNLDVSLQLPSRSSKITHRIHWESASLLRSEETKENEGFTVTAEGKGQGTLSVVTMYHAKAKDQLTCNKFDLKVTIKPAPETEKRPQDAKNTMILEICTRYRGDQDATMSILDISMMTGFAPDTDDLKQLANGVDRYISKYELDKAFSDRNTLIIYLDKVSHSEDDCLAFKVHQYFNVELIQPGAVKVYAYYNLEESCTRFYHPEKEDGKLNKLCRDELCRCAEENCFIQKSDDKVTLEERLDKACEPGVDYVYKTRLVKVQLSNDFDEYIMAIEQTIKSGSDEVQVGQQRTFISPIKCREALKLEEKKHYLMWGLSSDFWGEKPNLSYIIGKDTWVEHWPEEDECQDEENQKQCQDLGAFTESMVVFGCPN
Experiment: cell-based or functional assay
Task for the reader: assign each of the following binders its reported EC50 hC3 cleavage.
Return type: number; implicit unit nM.

In plain terms, MTSP-1 protease domain I41G/F97S/F99L/C122S/G151N/Q175I/Q192T (enzyme) VVGGTDADEGEWPWQVSLHALGQGHGCGASLISPNWLVSAAHCYIDDRGFRYSDPTQWTAFLGLHDQSQRSAPGVQERRLKRIISHPFFNDSTLDYDIALLELEKPAEYSSMVRPISLPDASHVFPAGKAIWVTGWGHTQYGGTNALILQKGEIRVINQTTCENLLPQIITPRMMCVGFLSGGVDSCTGDSGGPLSSVEADGRIFQAGVVSWGDGCAQRNKPGVYTRLPLFRDWIKENTGV has a documented EC50 hC3 cleavage of 97.7

Per the records, this binder ( MTSP-1 protease domain I41D/F60eI/D96E/F99L/C122S/G151N/Q192T (enzyme) VVGGTDADEGEWPWQVSLHALGQGHDCGASLISPNWLVSAAHCYIDDRGIRYSDPTQWTAFLGLHDQSQRSAPGVQERRLKRIISHPFFNEFTLDYDIALLELEKPAEYSSMVRPISLPDASHVFPAGKAIWVTGWGHTQYGGTNALILQKGEIRVINQTTCENLLPQQITPRMMCVGFLSGGVDSCTGDSGGPLSSVEADGRIFQAGVVSWGDGCAQRNKPGVYTRLPLFRDWIKENTGV ) has EC50 hC3 cleavage equal to 47.9

Sample MTSP-1 protease domain I41S/F97D/F99L/C122S/Q192V (enzyme) VVGGTDADEGEWPWQVSLHALGQGHSCGASLISPNWLVSAAHCYIDDRGFRYSDPTQWTAFLGLHDQSQRSAPGVQERRLKRIISHPFFNDDTLDYDIALLELEKPAEYSSMVRPISLPDASHVFPAGKAIWVTGWGHTQYGGTGALILQKGEIRVINQTTCENLLPQQITPRMMCVGFLSGGVDSCVGDSGGPLSSVEADGRIFQAGVVSWGDGCAQRNKPGVYTRLPLFRDWIKENTGV ; EC50 hC3 cleavage observed: 31

Per the record, MTSP-1 protease domain I41E/F97R/F99L/C122S/G151Q/Q175G/Q192T (enzyme) VVGGTDADEGEWPWQVSLHALGQGHECGASLISPNWLVSAAHCYIDDRGFRYSDPTQWTAFLGLHDQSQRSAPGVQERRLKRIISHPFFNDRTLDYDIALLELEKPAEYSSMVRPISLPDASHVFPAGKAIWVTGWGHTQYGGTQALILQKGEIRVINQTTCENLLPQGITPRMMCVGFLSGGVDSCTGDSGGPLSSVEADGRIFQAGVVSWGDGCAQRNKPGVYTRLPLFRDWIKENTGV has EC50 hC3 cleavage of 41.1

For record MTSP-1 protease domain Q38M/I41T/D96M/ins97aH/C122S/G151E (enzyme) VVGGTDADEGEWPWQVSLHALGMGHTCGASLISPNWLVSAAHCYIDDRGFRYSDPTQWTAFLGLHDQSQRSAPGVQERRLKRIISHPFFNMFHTFDYDIALLELEKPAEYSSMVRPISLPDASHVFPAGKAIWVTGWGHTQYGGTEALILQKGEIRVINQTTCENLLPQQITPRMMCVGFLSGGVDSCQGDSGGPLSSVEADGRIFQAGVVSWGDGCAQRNKPGVYTRLPLFRDWIKENTGV the listed EC50 hC3 cleavage is 19.1
